Origin of the recorded values: ChEMBL document CHEMBL1153722

Species on record: Rattus norvegicus
method: Inhibition of rat recombinant Rab geranylgeranyltransferase at 100 uM in presence of canine Rab7 and rat REP1 NBD-FPP based continuous fluorimetric assay
Peptide text beside a SMILES is read from it. * marks the point of attachment. Hydrocinnamoyl = O=C(CCc1ccccc1)*; NHPh = c1ccc(N*)cc1
attribute measured: inhibition (%)

• O=C(CCNC(=O)[C@H](Cc1c[nH]cn1)NC(=O)OCc1ccccc1)N[C@@H](Cc1ccc(O)cc1)C(=O)NCCCn1ccnc1 = 88
• Nc1ccccc1NC(=O)[C@H](Cc1ccc(O)cc1)NC(=O)CCNC(=O)[C@H](Cc1c[nH]cn1)NC(=O)OCc1ccccc1 = 80
• O=C(CCc1ccccc1)N[C@@H](CO)C(=O)NCC(=O)N[C@@H](CO)C(=O)Nc1ccccc1 (Hydrocinnamoyl-Ser-Gly-Ser-NHPh) = 93
• NC(=O)CC[C@H](NC(=O)[C@H](Cc1ccccc1)NC(=O)CNC(=O)CCc1ccccc1)C(=O)NNc1ccccc1 = 75
• O=C(CNC(=O)[C@H](Cc1ccc(O)cc1)NC(=O)c1ccc(F)cc1)N[C@@H](Cc1ccc(O)cc1)C(=O)Nc1ccccc1 = 97
• O=C(CNC(=O)[C@H](Cc1ccc(O)cc1)NCCc1ccc(F)cc1)N[C@@H](Cc1ccc(O)cc1)C(=O)N1CCOCC1 = 92
• O=C(/C=C/c1ccc(F)cc1)N[C@@H](CO)C(=O)N[C@@H](Cc1ccccc1)C(=O)N[C@@H](CO)C(=O)O = 99

* * *

method: Inhibition of rat recombinant Rab geranylgeranyltransferase iin presence of canine Rab7 and rat REP1 by NBD-FPP based continuous fluorimetric assay
attribute measured: IC50 (µM)

* CCCCCCCCCCC(=O)N[C@@H](Cc1c[nH]cn1)C(=O)N[C@@H](Cc1c[nH]cn1)C(=O)N[C@@H](Cc1ccc(O)cc1)C(=O)NCCCCN | 5.2
* CCCCCCCCCCC(=O)N[C@@H](Cc1ccc(O)cc1)C(=O)N[C@@H](Cc1c[nH]cn1)C(=O)N[C@@H](Cc1ccc(O)cc1)C(=O)NCCCCN | 7.1
* CCCCCCCCCCCOc1ccc(C(=O)N[C@@H](Cc2c[nH]cn2)C(=O)N[C@@H](Cc2c[nH]cn2)C(=O)N[C@@H](Cc2c[nH]cn2)C(=O)N(C)CCc2ccccn2)cc1 | 12.1
* CCCCCCCCCCCCCCC(=O)N[C@@H](Cc1c[nH]cn1)C(=O)N[C@@H](Cc1ccccc1)C(=O)N[C@@H](Cc1ccc(O)cc1)CN(C)CCc1ccccn1 | 26
* CCCCCCCCCCC(=O)N[C@@H](Cc1ccc(O)cc1)C(=O)N[C@@H](Cc1c[nH]cn1)C(=O)N[C@@H](Cc1ccc(O)cc1)C(=O)N(C)CCc1ccccn1 | 6.3
* CN(C(=O)[C@@H](Cc1c[nH]cn1)NC(=O)OCc1ccccc1OCc1ccccc1)[C@H](CN[C@@H](Cc1ccccc1)C(=O)O)Cc1ccc(O)cc1 | 15.6
* CCCCCc1ccc(CCC(=O)N[C@H](Cc2ccc(O)cc2)C(=O)N[C@@H](Cc2ccc(O)cc2)C(=O)N[C@@H](C[Si]2(C)CCCCC2)C(=O)O)cc1 | 19.1
* CN(C(=O)[C@@H](Cc1c[nH]cn1)NC(=O)/C=C/c1ccc(-c2ccccc2)cc1)[C@H](CN[C@@H](Cc1ccc(O)cc1)C(=O)O)Cc1ccc(O)cc1 | 22.7
* CCCCCc1ccc(CCC(=O)N[C@H](Cc2c[nH]cn2)C(=O)N(C)[C@H](CN[C@@H](Cc2ccccc2)C(=O)O)Cc2ccccc2)cc1 | 19

(P) CN(C(=O)[C@H](Cc1c[nH]cn1)NC(=O)OCc1ccccc1)[C@@H](Cc1ccccc1)C(=O)N[C@H](Cc1ccc(O)cc1)C(=O)NO
(Q) CN(C(=O)[C@@H](Cc1c[nH]cn1)NC(=O)OCc1ccccc1)[C@@H](Cc1ccccc1)C(=O)N[C@@H](Cc1ccc(O)cc1)C(=O)O
Lowest IC50? choose P or Q Bench note: the answer is the label of the chosen record.
P

* * *

Organism: Rattus norvegicus
method: Inhibition of rat recombinant Rab geranylgeranyltransferase at 100 uM in presence of canine Rab7 and rat REP1 NBD-FPP based continuous fluorimetric assay
Peptide text beside a SMILES is read from it. * marks the point of attachment. Undecanoyl = CCCCCCCCCCC(=O)*
attribute measured: inhibition (%)

* O=C(CCc1ccc(F)cc1)N[C@@H](Cc1ccc(O)cc1)C(=O)NCC(=O)N[C@@H](Cc1ccc(O)cc1)C(=O)Nc1ccc(F)cc1 | 80
* CCCCCCCCCCC(=O)N[C@@H](Cc1ccc(O)cc1)C(=O)N[C@@H](Cc1c[nH]cn1)C(=O)N[C@@H](Cc1c[nH]cn1)C(=O)O (Undecanoyl-Tyr-His-His-OH) | 64
* O=C(CNC(=O)[C@H](Cc1ccccc1)NC(=O)c1coc(-c2ccccc2)n1)N[C@@H](CO)C(=O)O | 106

(A) C[C@@H](O)[C@H](NC(=O)/C=C/c1ccccc1)C(=O)N[C@@H](Cc1ccccc1)C(=O)N[C@@H](CCC(N)=O)C(=O)OCCCl
(B) CCCCCCCCCCCC(=O)N[C@@H](Cc1ccc(O)cc1)C(=O)N[C@@H](Cc1c[nH]cn1)C(=O)N[C@@H](Cc1ccc(O)cc1)C(=O)Nc1ccccc1N
Lowest inhibition? choose A or B Bench note: the answer is the label of the chosen record.
B
(B: 42%, A: 81%)

* * *

method: Inhibition of rat recombinant Rab geranylgeranyltransferase iin presence of canine Rab7 and rat REP1 by NBD-FPP based continuous fluorimetric assay
attribute measured: IC50 (µM)

- O=C(CNC(=O)c1csc(-c2cccs2)n1)N[C@@H](Cc1ccccc1)C(=O)N[C@@H](Cc1c[nH]cn1)C(=O)O: 41

(A) O=C(CNC(=O)c1csc(-c2cccnc2)n1)N[C@@H](Cc1ccccc1)C(=O)N[C@@H](Cc1cn(C(c2ccccc2)(c2ccccc2)c2ccccc2)cn1)C(=O)O
(B) CCCCCCCCCCCOc1ccc(C(=O)N[C@@H](Cc2c[nH]cn2)C(=O)N[C@@H](Cc2ccc(O)cc2)C(=O)N[C@@H](Cc2ccccc2)C(=O)NCCCn2ccnc2)cc1
Lowest IC50? choose A or B Bench note: the answer is the label of the chosen record.
B
(B: 12.3 µM, A: 37 µM)

* * *

Species: Rattus norvegicus
method: Inhibition of rat recombinant Rab geranylgeranyltransferase at 100 uM in presence of canine Rab7 and rat REP1 NBD-FPP based continuous fluorimetric assay
Peptide text beside a SMILES is read from it. * marks the point of attachment. Hydrocinnamoyl = O=C(CCc1ccccc1)*
attribute measured: inhibition (%)

• COC(=O)[C@H](CO)NC(=O)[C@H](Cc1c[nH]cn1)NC(=O)[C@H](CCCCN)NC(=O)CCc1ccccc1 (Hydrocinnamoyl-Lys-His-Ser-OMe) = 86
• O=C(CNC(=O)c1coc(-c2ccccc2)n1)N[C@@H](Cc1c[nH]cn1)C(=O)N[C@@H](Cc1c[nH]cn1)C(=O)O = 96

(1) COC(=O)[C@H](CC(C)C)NC(=O)[C@H](COC(C)(C)C)NC(=O)[C@H](Cc1ccccc1)NC(=O)CCc1ccccc1
(2) O=C(CNC(=O)c1coc(-c2ccccc2)n1)NCC(=O)N[C@@H](Cc1cn(C(c2ccccc2)(c2ccccc2)c2ccccc2)cn1)C(=O)Nc1ccc(F)cc1F
Lowest inhibition? choose 1 or 2 Bench note: the answer is the label of the chosen record.
2

* * *

Species: Rattus norvegicus
method: Inhibition of rat recombinant Rab geranylgeranyltransferase at 100 uM in presence of canine Rab7 and rat REP1 NBD-FPP based continuous fluorimetric assay
Peptide text beside a SMILES is read from it. * marks the point of attachment. Hydrocinnamoyl = O=C(CCc1ccccc1)*; NHPh = c1ccc(N*)cc1
attribute measured: inhibition (%)

(P) CCCCCCCCCCCOC(=O)[C@H](CO)NC(=O)CNC(=O)[C@H](CO)NC(=O)/C=C/c1ccc(F)cc1
(Q) CC#CCOC(=O)[C@H](Cc1ccccc1)NC(=O)[C@H](CC(C)C)NC(=O)[C@@H]1CCCN1C(=O)/C=C/c1ccccc1
Lowest inhibition? choose P or Q Bench note: the answer is the label of the chosen record.
P
(P: 70%, Q: 107%)

(a) O=C(N[C@@H](CO)C(=O)N[C@@H](Cc1ccccc1)C(=O)N[C@@H](CO)C(=O)Nc1ccc(N2CCOCC2)cc1)C(Br)C(Br)c1ccc(F)cc1 (stereo partly drawn)
(b) CC(C)C[C@H](NC(=O)[C@H](COC(C)(C)C)NC(=O)[C@H](Cc1ccccc1)NC(=O)/C=C/c1ccc(F)cc1)C(=O)O
Lowest inhibition? choose a or b Bench note: the answer is the label of the chosen record.
a
(a: 70%, b: 103%)

(A) CCCCCCCCCCC(=O)N[C@@H](Cc1ccc(O)cc1)C(=O)N[C@@H](Cc1c[nH]cn1)C(=O)N[C@@H](Cc1c[nH]cn1)C(=O)NCCCn1ccnc1
(B) COC(=O)[C@H](CCC(N)=O)NC(=O)[C@H](Cc1ccccc1)NC(=O)CNC(=O)CCc1ccccc1 (Hydrocinnamoyl-Gly-Phe-Gln-OMe)
Out of A and B , name the one with the higher inhibition. Bench note: the answer is the label of the chosen record.
B

(P) NC(=O)CC[C@H](NC(=O)[C@H](Cc1ccccc1)NC(=O)CNC(=O)CCc1ccccc1)C(=O)Nc1ccccc1 (Hydrocinnamoyl-Gly-Phe-Gln-NHPh)
(Q) CC(C)C[C@H](NC(=O)[C@H](CO)NC(=O)[C@H](Cc1ccccc1)NC(=O)c1ccc(-c2ccccc2)cc1)C(=O)OCCCl
Lowest inhibition? choose P or Q Bench note: the answer is the label of the chosen record.
Q
(Q: 53%, P: 80%)
